Quick reference for self-cleavage among some variants
B1: CPEB3 Ribozyme (parent)
chain: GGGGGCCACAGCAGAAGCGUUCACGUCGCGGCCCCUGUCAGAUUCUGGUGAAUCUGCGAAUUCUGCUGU

Variants of: B1
TEST_METHOD_NOTES: self-cleavage, relative activity (ratio to wild type); higher = more cleavage; co-transcriptional
Lab note: record the figure alone, no unit after it.

U55A G68A    0.942
U49C C66G    0.879
C22G C33A    0.195
U46G U53C    0.978
U53G U61A    0.706
G1U C24G    0.0268

Query (variant): C45U G48A ; field requested: self-cleavage
0.992
